Target: jack bean urease (JBU) (Canavalia ensiformis, UniProt P07374)
Sequence (P07374 whole entry, looked up): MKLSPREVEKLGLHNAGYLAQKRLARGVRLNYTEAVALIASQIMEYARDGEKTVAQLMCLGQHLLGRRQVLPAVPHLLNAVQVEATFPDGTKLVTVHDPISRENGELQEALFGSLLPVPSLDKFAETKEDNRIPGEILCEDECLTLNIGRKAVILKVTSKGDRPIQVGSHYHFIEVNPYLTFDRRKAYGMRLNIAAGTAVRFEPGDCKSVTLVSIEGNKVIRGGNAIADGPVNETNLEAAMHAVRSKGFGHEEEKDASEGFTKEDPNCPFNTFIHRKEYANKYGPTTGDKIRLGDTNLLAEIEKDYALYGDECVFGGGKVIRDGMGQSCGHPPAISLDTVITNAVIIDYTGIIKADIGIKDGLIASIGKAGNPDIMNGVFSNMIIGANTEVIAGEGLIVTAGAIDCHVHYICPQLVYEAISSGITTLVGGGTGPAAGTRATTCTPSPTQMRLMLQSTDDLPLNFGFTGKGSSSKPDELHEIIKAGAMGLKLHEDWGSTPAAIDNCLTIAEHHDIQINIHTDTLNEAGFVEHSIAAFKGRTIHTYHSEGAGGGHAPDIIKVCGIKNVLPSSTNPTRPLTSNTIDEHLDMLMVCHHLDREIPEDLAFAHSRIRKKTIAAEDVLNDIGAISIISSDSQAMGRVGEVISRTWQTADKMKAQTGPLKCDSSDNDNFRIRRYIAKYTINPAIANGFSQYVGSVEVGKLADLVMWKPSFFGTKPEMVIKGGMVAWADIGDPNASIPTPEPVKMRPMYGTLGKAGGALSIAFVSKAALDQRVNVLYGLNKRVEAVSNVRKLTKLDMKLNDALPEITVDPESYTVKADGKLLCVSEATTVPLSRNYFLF
Measurement kind: pKi
API: returns pKi as number; meaning -log10 of concentration in mol/L.

Q: Record lookup: for jack bean urease (JBU) (Canavalia ensiformis, UniProt P07374), what pKi belongs to Cc1c(Cl)cccc1NC(=S)NC(=O)c1ccccc1Cl ?
A: 9.52

----------
Target: jack bean urease (JBU) (Canavalia ensiformis, UniProt P07374)
Test: biochemical
# label = met if IC50 < 0.02 µM else not met

Worked examples follow.
Mol: Cc1ccc(C(=O)NC(=S)Nc2cccc(Cl)c2C)cc1
System tested: jack bean urease (JBU) (Canavalia ensiformis, UniProt P07374)
Class name: not met
--
Mol: Cc1c(Cl)cccc1NC(=S)NC(=O)c1ccccc1Cl
System tested: jack bean urease (JBU) (Canavalia ensiformis, UniProt P07374)
Class name: met
--
Mol: Cc1c(Cl)cccc1NC(=S)NC(=O)c1cccc([N+](=O)[O-])c1
System tested: jack bean urease (JBU) (Canavalia ensiformis, UniProt P07374)
Class name: met
--
Mol: Cc1c(Cl)cccc1NC(=S)NC(=O)c1ccc(Cl)cc1
System tested: jack bean urease (JBU) (Canavalia ensiformis, UniProt P07374)
Class name: not met
--
Mol: COc1ccc(C(=O)NC(=S)Nc2cccc(Cl)c2C)cc1
System tested: jack bean urease (JBU) (Canavalia ensiformis, UniProt P07374)
Class name: met
--
Mol: Cc1c(Cl)cccc1NC(=S)NC(=O)c1cc([N+](=O)[O-])cc([N+](=O)[O-])c1
System tested: jack bean urease (JBU) (Canavalia ensiformis, UniProt P07374)
Class name: not met

Consider now this further compound.
Q: Please check: IC50 for Cc1c(Cl)cccc1NC(=S)NC(=O)c1ccccc1 , strictly under 0.02 µM or not?
A: not met

----------
Target: jack bean urease (JBU) (Canavalia ensiformis)
Test: biochemical
Settings: jack bean urease; mean ± SEM; read-out: Urease Activity IC50 ± SEM
Protocol: Hydrophobic and hydrophilic groups were substituted on a phenyl ring in the novel analogues 4a–j that were synthesized in order to check urease inhibition activity. The function of nitro, chloro, methyl and ethyl substitution in urease inhibitory activity was evaluated. Thiourea, a well-known urease inhibitor, served as the reference compound. The methodology used in this research for in vitro urease inhibitory activity is the same as reported in our earlier paper.
Measurement kind: pIC50
API: returns pIC50 as number; meaning -log10 of concentration in mol/L.

Q: // returns reported pIC50 for input NC(N)=S
A: 5.32
